Reference source for all entries: patent US20250136722A1

System: endogenous target monocytes in human PBMC
Assay: PBMC ex vivo monocyte depletion flow cytometry assay (Example 200)
Format: cell-based
Details: with anti-cotinine antibody SEQ ID NO: 11/12, 18-24 hours, read-out: Ex Vivo Depletion Assay pEC50 (converted)
attribute_measured: EC50 (nM)
Write the answer as a number in nM, unit excluded.

Would you kindly share the measured EC50 for CC(C)N(C)[C@@H]1CCC(N2CC[C@H](Nc3ncnc4ccc(C(F)(F)F)cc34)C2=O)[C@H](NC(=O)CCOCCOCCOCCOCCOCCOCCNC(=O)[C@H]2CC(=O)N(C)[C@@H]2c2cccnc2)C1 (stereo partly drawn) [Example 41] ?
2.51

Next compound up: CC(C)N(C)[C@@H]1CCC(N2CC[C@H](Nc3ncnc4ccc(C(F)(F)F)cc34)C2=O)[C@H](NC(=O)CCOCCOCCOCCOCCOCCNC(=O)[C@H]2CC(=O)N(C)[C@@H]2c2cccnc2)C1 (stereo partly drawn) [Example 40]
5.01

Try this compound too: CC(C)N(C)C1CCC(N2CC[C@H](Nc3ncnc4ccc(C(F)(F)F)cc34)C2=O)[C@H](N[C@H]2CC[C@@H](C(=O)NCCOCCOCCOCCOCCNC(=O)[C@H]3CC(=O)N(C)[C@@H]3c3cccnc3)CC2)C1 (stereo partly drawn) [Example 67]
3.98
